For each record, write down the corresponding Kd.
Target: UniProt:P00918
Assay: Fluorescence-based thermal shift assay (FTSA)
Give bare numbers, in nM.

Before answering, review these 5 worked examples.
{"columns": ["molecule", "assayed.target", "Kd, nM"],
 "data": [
  ["NS(=O)(=O)c1cc2c(cc1Cl)CN(C1CCCCC1)C2=O [Compound 17, Clorexolone]", "UniProt:P00918", 76],
  ["NS(=O)(=O)c1ccccc1Cl [Compound 1, 2-chloro-benzenesulfonamide]", "UniProt:P00918", 560],
  ["NS(=O)(=O)c1cc2c(cc1Cl)N=CNS2(=O)=O [Compound 3, chlorothiazide]", "UniProt:P00918", 370],
  ["NS(=O)(=O)c1cc2c(cc1Cl)NC(c1ccccc1)NC2=O (stereo not drawn)", "UniProt:P00918", 15000],
  ["C[C@@H]1CCC[C@H](C)N1NC(=O)c1ccc(Cl)c(S(N)(=O)=O)c1 [Compound 13, clopamide]", "UniProt:P00918", 370]
]}

// Kd lookup, molecule = NS(=O)(=O)c1cc2c(cc1C(F)(F)F)NCNS2(=O)=O [Compound 10, hydroflumethiazide] , result: 17000

###

Target: CA XII (Homo sapiens, UniProt O43570)
Sequence (O43570 25-354): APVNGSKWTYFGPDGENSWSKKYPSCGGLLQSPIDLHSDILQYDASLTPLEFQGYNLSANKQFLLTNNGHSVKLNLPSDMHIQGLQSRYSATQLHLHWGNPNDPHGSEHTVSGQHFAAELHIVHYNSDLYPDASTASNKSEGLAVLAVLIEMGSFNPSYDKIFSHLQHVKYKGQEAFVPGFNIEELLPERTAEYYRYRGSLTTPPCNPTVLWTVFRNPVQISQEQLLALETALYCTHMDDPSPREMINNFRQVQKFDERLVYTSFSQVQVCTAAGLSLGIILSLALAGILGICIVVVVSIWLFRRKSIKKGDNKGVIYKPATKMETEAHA
pKd: −log10 of the molar value.
Outcome: Criterion met for pKd of at least 6; Criterion not met for anything lower.

As a guide, the following entries are already answered.
{"columns": ["compound", "qualitative.label"],
 "data": [
  ["NS(=O)(=O)c1cc2c(cc1Cl)NC(C1CC3C=CC1C3)NS2(=O)=O (stereo not shown) [Compound 6, cyclothiazide]", "Criterion met"],
  ["NS(=O)(=O)c1cc2c(cc1C(F)(F)F)NCNS2(=O)=O [Compound 10, hydroflumethiazide]", "Criterion not met"],
  ["NS(=O)(=O)c1cc2c(cc1Cl)N=C(CSCc1ccccc1)NS2(=O)=O [Compound 8, benzthiazide]", "Criterion met"],
  ["NS(=O)(=O)c1cc2c(cc1Cl)NCNS2(=O)=O [Compound 4, hydrochlorothiazide]", "Criterion met"]
]}

**Q:** Threshold query (pKd >= 6) on NS(=O)(=O)c1ccccc1Cl [Compound 1, 2-chloro-benzenesulfonamide]
**A:** Criterion met

**Q:** Hi, just wondering whether CN1C(CSCC(F)(F)F)Nc2cc(Cl)c(S(N)(=O)=O)cc2S1(=O)=O (stereo not shown) [Compound 7, polythiazide] shows pKd of 6 or higher.
**A:** Criterion not met

###

Data export: pKd values recorded with CA VII (Homo sapiens).
Sequence (P43166 whole entry): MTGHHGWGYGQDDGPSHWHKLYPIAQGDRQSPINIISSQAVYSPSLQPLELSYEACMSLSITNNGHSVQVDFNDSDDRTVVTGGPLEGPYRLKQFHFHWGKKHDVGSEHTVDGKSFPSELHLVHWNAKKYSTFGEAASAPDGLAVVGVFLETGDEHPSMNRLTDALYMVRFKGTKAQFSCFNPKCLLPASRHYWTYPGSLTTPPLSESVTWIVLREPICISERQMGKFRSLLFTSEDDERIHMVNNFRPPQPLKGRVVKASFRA
Answers are plain numbers, as −log10 of the molar value.

Below, 3 molecules whose answers are already recorded.
{"columns": ["molecule", "pKd"],
 "data": [
  ["NS(=O)(=O)c1cc2c(cc1Cl)NC(C1CC3C=CC1C3)NS2(=O)=O (stereo not shown) [Compound 6, cyclothiazide]", 6.30],
  ["NS(=O)(=O)c1cc2c(cc1Cl)N=CNS2(=O)=O [Compound 3, chlorothiazide]", 7.15],
  ["NS(=O)(=O)c1cc2c(cc1C(F)(F)F)NC(Cc1ccccc1)NS2(=O)=O (stereo not shown) [Compound 11, bendroflumethiazide]", 6.36]
]}

Now for another entry.
# pKd (molecule: C[C@@H]1CCC[C@H](C)N1NC(=O)c1ccc(Cl)c(S(N)(=O)=O)c1 [Compound 13, clopamide] ) is 6.60
